# Tested on: 786-0 renal
# Test: NCI-60 one-dose screen, 48 h
# Settings: 10 µM unless noted
Compounds without any hit were thinned out: in the full panel of roughly 83,000, 20% have a hit. Calls of active or inactive are those of the source. Rule for the calls: active = growth percent below 10; inactive = the rest.
Give your call using only these classes: active, inactive

Call for entry `COc1ccc(N/N=C/c2cn(-c3ccc(C(=O)O)cc3)nc2-c2cc3ccccc3oc2=O)cc1` :
inactive

Hello, I am checking results. What call was entered for [N-]=[N+]=NCC1OC(n2cnc3c(NC(=O)Nc4ccccc4)ncnc32)C2OC(=O)CC12 (configuration not stated) ?
inactive

Could you check what this test reported for `CN1CCOCCN(C)Cc2ccc3ccc(cc3c2)CN(C)CCOCCN(C)Cc2ccc3ccc(cc3c2)C1` ?
inactive

Given `Clc1ccc(Nc2nnc(CNc3ccccc3)c3ccccc23)cc1` , state the outcome it received in this test.
inactive

Tell me the assay call for `Nc1c(Br)cc2c(c1Br)Cc1cc([N+](=O)[O-])ccc1-2` please.
inactive

Hi team, can someone confirm the assay call for `C=CN(C(=O)N1CCN(c2cc3c(cc2F)c(=O)c(C(=O)O)cn3C2CC2)CC1)c1nc(-c2ccc(Cl)cc2)cs1` ?
inactive

// param item: `N#Cc1ccccc1-c1ccc(CN2C(=O)S/C(=C\c3ccc(Br)cc3)C2=O)cc1` ; yields the recorded call
inactive

Check the results log: what was the call for `Cc1c(C(C)(C)O)cn2ncnc(Oc3ccc(NC(=O)Nc4ccc(Cl)c(C(F)(F)F)c4)c(F)c3)c12` ?
inactive

Hi, sorry to bother you, what did the test record for COc1ccc(C2CC(c3ccccc3)=NN2C(=O)c2cc(OC)c(OC)c(OC)c2)cc1O (configuration not stated) ?
inactive

Recorded test call requested for `CCN(CC)CCCNc1cc(OC)c(OC)c2cccnc12`
inactive

What outcome does the record of this test show for `CCCc1cc(=O)oc2c(C(=O)CC(C)C)c(O)c(CC=C(C)C)c(O)c12` ?
inactive

State the result this test recorded for `COc1cc2c3c(c4c5ccccc5[nH]c4c2c(OC)c1OC)C(=O)N(CCN1CCCCC1)C3=O` .
active

Could you check what this test reported for Cc1nc2sc(C(=O)Nc3ccccn3)c(N)c2cc1C(C)O (configuration not stated) ?
inactive

So what was the verdict on `Fc1ccc2[nH]cc(-c3nc(-c4c[nH]c5c(Cl)nccc45)cs3)c2c1` in this test?
active

# lookup: test call for `O=c1oc2ccccc2cc1-c1nn(-c2ccccc2)cc1-c1nn[nH]n1`
inactive

Please indicate how the test categorized `COc1cc(/C=C/c2cn[nH]c2-c2ccc(C)cc2)cc(OC)c1OC` .
inactive

How was `C/C(=N\Nc1ccccc1)c1ccc(NC2=CC(=O)c3ccccc3C2=O)cc1` classified in this test?
inactive

Returns: the outcome recorded for `CS(=O)(=O)Nc1cc(-c2ccc3ncnc(Nc4ccc(F)c(Cl)c4)c3c2)ccc1Cl` in this assay.
inactive

Record lookup: outcome of this test for `CCCCCCCCn1ccc2cc(NC(=O)CN3CCN(c4cc(C)nc(Cl)n4)CC3)ccc21` ?
inactive

What did this assay record as the result for `COc1ccc(/C=C(\C(=O)NCc2cccnc2)S(=O)(=O)c2ccccc2)cc1OC` ?
inactive

Entry `C=C(C)[C@@H]1CC[C@]2(C(=O)N3CCN(C)CC3)CC[C@]3(C)[C@H](CC[C@@H]4[C@@](C)(CCC(=O)O)[C@H](C(=C)C)CC[C@]43C)[C@@H]12` : call = ?
inactive

Please let me know the test result on file for O=C1CCCC1[n+]1ccccc1 (configuration not stated) .
inactive

I'd appreciate the recorded outcome for `CC(=O)O[C@H]1CC[C@]2(C)[C@H]3CC=C4[C@@H]5CC(C)(C)CC[C@]5(C(=O)N5CCN(CCC#N)CC5)CC[C@@]4(C)[C@]3(C)CC[C@H]2C1(C)C` from this test.
inactive

Assay outcome for `COc1c2c(cc3c1C(=O)N[C@@H]1[C@@H](O)[C@@H](O)[C@H](O)C[C@@H]31)OCCO2` : what was it?
inactive

Record request — test call for COC1C(O)CC(OC2CC(OC3CC(O[C@@H]4C(=O)c5c(cc6cc(OC7CC(OC8CC(O)C(O)C(C)O8)C(O)C(C)O7)c(C)c(O)c6c5O)CC4[C@H](OC)C(=O)O)OC(C)C3O)OC(C)C2O)OC1C (some centres not stated)
inactive

Called result for O=CN1N=C(c2cccc(Nc3ccnc4cc(Cl)ccc34)c2)CC1c1ccc(Cl)cc1 (configuration not stated)
inactive

Please share the test call associated with `Cn1c(=O)[nH]c(=O)c2nc3c(nc21)-c1ccccc1C3=O` .
inactive

Please let me know the test result on file for `O=C(/C=C/c1cccc(Oc2ccccc2)c1)c1ccc(Nc2nc(Nc3ccc(F)cc3)nc(Nc3ccc(Cl)cc3)n2)cc1` .
inactive

Record lookup: outcome of this test for `CCOC(=O)c1c(NC(=O)c2ccccc2)sc2c3c(ccc12)OCN(C)C3` ?
active

Which outcome was entered for the molecule `CN(C)CCCNC(=O)c1cncnc1Nc1ccc2c(ccn2Cc2cccc(F)c2)c1` in this test?
inactive

Call for entry `CCOC(=O)C/C(=N\Nc1cc(=O)[nH]c2ccc(OC)cc12)C(=O)OCC` :
inactive

Please let me know the test result on file for `COc1ccc(N=C2NN=C(c3c[nH]c4ccccc34)CS2)cc1OC` .
inactive

For `O=C(NCCN1CCOCC1)OCc1ccc2c(Cl)cc(Cl)c(O)c2n1` , what call appears in the results of this test?
inactive

Recorded test outcome, item CCNC(=O)N1CCc2c(Br)c3c(c(OC)c2C1Cc1ccc(OC)cc1)OCO3 (configuration not stated)
inactive

Record lookup: outcome of this test for `COc1ccc(-c2cc(-c3cn(-c4cccc(Cl)c4)nc3-c3ccc(OC)cc3)on2)cc1` ?
inactive

Tell me the assay call for `Oc1c(CN2CCC(N3CCOCC3)CC2)cc(Cc2cc(CN3CCC(N4CCOCC4)CC3)c(O)c3ncccc23)c2cccnc12` please.
inactive

Which outcome was entered for the molecule `Cc1ccc(OCCOCCOCCOCCOCCOc2ccc(C)n(O)c2=S)c(=S)n1O` in this test?
active
